Where these numbers come from: ChEMBL document CHEMBL3638970

- TESTED TARGET: Trace amine-associated receptor 1 (Rattus norvegicus)
- Sequence (Q923Y9 whole entry): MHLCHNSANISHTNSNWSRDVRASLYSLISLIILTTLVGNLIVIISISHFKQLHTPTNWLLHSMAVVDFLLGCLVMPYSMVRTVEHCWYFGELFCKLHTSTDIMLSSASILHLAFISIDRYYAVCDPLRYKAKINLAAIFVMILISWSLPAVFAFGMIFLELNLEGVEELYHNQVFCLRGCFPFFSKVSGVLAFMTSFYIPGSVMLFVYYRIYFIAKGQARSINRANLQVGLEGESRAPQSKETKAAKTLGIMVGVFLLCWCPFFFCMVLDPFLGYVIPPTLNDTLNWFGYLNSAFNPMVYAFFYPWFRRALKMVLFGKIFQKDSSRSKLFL
- ASSAY PROTOCOL: Radioligand Binding Assay: HEK-293 cells stably expressing rat TAAR1 were maintained at 37 C and 5% CO2 in DMEM high glucose medium, containing fetal calf serum (10%, heat inactivated for 30 min at 56 C), penicillin/streptomycin (1%), and 375 ug/ml geneticin (Gibco). Cells were released from culture flasks using trypsin/ EDTA, harvested, washed twice with ice-cold PBS (without Ca2+ and Mg2+), pelleted at 1,000 rpm for 5 min at 4 C, frozen and stored at -80 C. Frozen pellets were suspended in 20 ml HEPES-NaOH (20 mM, pH 7.4) containing 10 mM EDTA and homogenized with a Polytron (PT 6000, Kinematica) at 14,000 rpm for 20 s. The homogenate was centrifuged at 48,000 x g for 30 min at 4 C. Subsequently, the supernatant was removed and discarded, and the pellet resuspended in 20 ml HEPES-NaOH (20 mM, pH 7.4) containing 0.1 mM EDTA using the Polytron (20 s at 14,000 rpm). This procedure was repeated and the final pellet resuspended in HEPES-NaOH containing 0.1 mM EDTA.
EXPERIMENTAL ENDPOINT: Ki (nM)

| MOLECULE | QUANTITATIVE READOUT |
| --- | --- |
| COc1ccc(C#N)cc1NC(=O)Nc1ccc([C@@H]2CNCCO2)cc1F | 5.9 |
| O=C(Nc1ccc([C@H]2CNCCO2)c(F)c1)c1cnn(-c2cnc(C(F)(F)F)cn2)c1 | 4 |
| N#Cc1ccnc(C(=O)Nc2ccc([C@@H]3CNCCO3)cc2F)c1 | 32.5 |
| N#Cc1ccc(C(=O)Nc2ccc([C@H]3CNCCO3)cc2Cl)cn1 | 524 |
| N#Cc1cc(Cl)cc(C(=O)Nc2ccc([C@H]3CNCCO3)cc2F)n1 | 93.8 |
| N#Cc1cccc(C(=O)Nc2ccc([C@@H]3CNCCO3)cc2Cl)n1 | 184 |
| N#Cc1ccc(C(=O)Nc2ccc([C@H]3CNCCO3)cc2Cl)nc1 | 154 |
| O=C(Nc1ccc([C@H]2CNCCO2)c(F)c1)c1cnn(-c2ccc(OC(F)F)cc2)c1 | 0.7 |
| N#Cc1cccc(C(=O)Nc2ccc([C@H]3CNCCO3)cc2Cl)n1 | 565 |
| N#Cc1ccc(C(=O)Nc2ccc([C@@H]3CNCCO3)cc2Cl)nc1 | 20.2 |
| CCOc1ccc(C#N)cc1NC(=O)Nc1ccc([C@@H]2CNCCO2)cc1F | 3.9 |
| O=C(Nc1ccc([C@H]2CNCCO2)c(F)c1)c1cnn(-c2ccnc(C(F)(F)F)n2)c1 | 3.6 |
| N#Cc1cccc(C(=O)Nc2ccc([C@H]3CNCCO3)cc2F)n1 | 959 |
| N#Cc1cccc(CNC(=O)Nc2ccc([C@H]3CNCCO3)cc2F)c1 | 67.9 |
| CCOc1ccc(C#N)cc1NC(=O)Nc1ccc([C@H]2CNCCO2)cc1F | 1.9 |
| N#Cc1ccc(C(=O)Nc2ccc([C@@H]3CNCCO3)cc2Cl)cn1 | 410 |

====

- TESTED TARGET: Trace amine-associated receptor 1 (Mus musculus, UniProt Q923Y8)
- Sequence (Q923Y8 whole entry): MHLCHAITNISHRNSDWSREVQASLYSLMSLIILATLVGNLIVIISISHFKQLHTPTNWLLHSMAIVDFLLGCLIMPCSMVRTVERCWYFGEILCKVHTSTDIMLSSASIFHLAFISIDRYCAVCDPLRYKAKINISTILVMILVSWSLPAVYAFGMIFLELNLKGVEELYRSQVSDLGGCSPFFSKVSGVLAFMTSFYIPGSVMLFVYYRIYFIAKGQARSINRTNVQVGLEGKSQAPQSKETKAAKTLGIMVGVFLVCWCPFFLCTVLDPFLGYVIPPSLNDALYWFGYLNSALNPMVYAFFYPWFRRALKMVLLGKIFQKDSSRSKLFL
- ASSAY PROTOCOL: Radioligand Binding Assay: Membrane Preparation and Radioligand Binding. HEK-293 cells stably expressing mouse TAA 1 were maintained at 37 C and 5% C02 in DMEM high glucose medium, containing fetal calf serum (10%, heat inactivated for 30 min at 56 C), penicillin/streptomycin (1%), and 375 ug/ml geneticin (Gibco). Cells were released from culture flasks using trypsin/ EDTA, harvested, washed twice with ice-cold PBS (without Ca2+ and Mg2+), pelleted at 1,000 rpm for 5 min at 4 C, frozen and stored at -80 C. Frozen pellets were suspended in 20 ml HEPES-NaOH (20 mM, pH 7.4) containing 10 mM EDTA and homogenized with a Polytron (PT 6000, Kinematica) at 14,000 rpm for 20 s. The homogenate was centrifuged at 48,000 x g for 30 min at 4 C. Subsequently, the supernatant was removed and discarded, and the pellet resuspended in 20 ml HEPES-NaOH (20 mM, pH 7.4) containing 0.1 mM EDTA using the Polytron (20 s at 14,000 rpm).
pKi: −log10 of the molar value.
EXPERIMENTAL ENDPOINT: pKi

| MOLECULE | QUANTITATIVE READOUT |
| --- | --- |
| N#Cc1ccc(C(=O)Nc2ccc([C@H]3CNCCO3)cc2Cl)nc1 | 8.20 |
| N#Cc1ccc(C(=O)Nc2ccc([C@H]3CNCCO3)cc2Cl)cn1 | 7.77 |
| CCOc1ccc(C#N)cc1NC(=O)Nc1ccc([C@@H]2CNCCO2)cc1F | 8.51 |
| O=C(Nc1ccc([C@H]2CNCCO2)c(F)c1)c1cnn(-c2ccnc(C(F)(F)F)n2)c1 | 8.10 |
| N#Cc1cccc(C(=O)Nc2ccc([C@@H]3CNCCO3)cc2Cl)n1 | 7.08 |
| COc1ccc(C#N)cc1NC(=O)Nc1ccc([C@@H]2CNCCO2)cc1F | 8.36 |
| O=C(Nc1ccc([C@H]2CNCCO2)c(F)c1)c1cnn(-c2ccc(OC(F)F)cc2)c1 | 9.22 |
| N#Cc1cccc(CNC(=O)Nc2ccc([C@H]3CNCCO3)cc2F)c1 | 8.51 |
| N#Cc1cccc(C(=O)Nc2ccc([C@H]3CNCCO3)cc2Cl)n1 | 7.56 |
| N#Cc1ccc(C(=O)Nc2ccc([C@@H]3CNCCO3)cc2Cl)cn1 | 7.59 |
| N#Cc1ccc(C(=O)Nc2ccc([C@@H]3CNCCO3)cc2Cl)nc1 | 7.92 |
| O=C(Nc1ccc([C@H]2CNCCO2)c(F)c1)c1cnn(-c2cnc(C(F)(F)F)cn2)c1 | 8.32 |
| CCOc1ccc(C#N)cc1NC(=O)Nc1ccc([C@H]2CNCCO2)cc1F | 8.74 |
| N#Cc1cc(Cl)cc(C(=O)Nc2ccc([C@H]3CNCCO3)cc2F)n1 | 8.20 |
| N#Cc1ccnc(C(=O)Nc2ccc([C@@H]3CNCCO3)cc2F)c1 | 8.30 |
| N#Cc1cccc(C(=O)Nc2ccc([C@H]3CNCCO3)cc2F)n1 | 8.01 |
